assayName: RPMI8226 myeloma cell viability, profiling panel, resazurin fluorescence, basal, 24 h, PK04 Diversity Set (AID 1180);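 also: RPMI8826 multiple myeloma cell line at 5000 cells per well; test concentration not given here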
testSettings: higher = more signal
Outcome label depends on z-score relative to -2: at/above gives Satisfied, below gives Not satisfied.

[
  {
    "molecule": "CCCC[C@H]1OB(O)C[C@H]2C1=C(C)C[C@H]1C(=O)C=CC(=O)[C@H]12",
    "assignedClass": "Satisfied"
  },
  {
    "molecule": "C=CCNC(=O)[C@@H]1[C@H]2C(=O)O[C@H](c3ccccc3)[C@H](c3ccccc3)N2[C@H](c2ccccc2OCCO)[C@@]12C(=O)N(C(=O)OCCOC)c1ccc(C#CCCO)cc12",
    "assignedClass": "Satisfied"
  },
  {
    "molecule": "NC(=O)N1C(=O)C2C(C1=O)C1C=C(CCCO)C2C(c2ccc(CN3CCCC3)cc2)N1Cc1cccc(OC(F)(F)F)c1 (configuration not stated)",
    "assignedClass": "Satisfied"
  },
  {
    "molecule": "COCCOC(=O)N1C(=O)[C@@]2(c3cc(C#CCCO)ccc31)[C@H](c1ccc(O)cc1)N1[C@H](c3ccccc3)[C@H](c3ccccc3)OC(=O)[C@H]1[C@@H]2C(=O)N1CCc2cc(OC)c(OC)cc2C1",
    "assignedClass": "Satisfied"
  },
  {
    "molecule": "CN(C)C(=O)[C@]1(Cc2ccccc2CN=[N+]=[N-])N=C(c2ccc(OCCCO)cc2)O[C@@H]1c1ccccc1N=[N+]=[N-]",
    "assignedClass": "Satisfied"
  },
  {
    "molecule": "CC(C)=CCN(C(=O)C#Cc1ccccc1)[C@H](CO)c1ccccc1",
    "assignedClass": "Not satisfied"
  }
]

* * *

assayName: basal RPMI8226 viability, no added stimulus, profiling panel, cell-based, calcein-AM fluorescence, 48 h, PK04 Diversity Set (AID 1166);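 also: cells grown under basal conditions without added stimulus; test concentration not given here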
testSettings: RPMI8226 myeloma viability, higher = more signal
measuredParameter: z-score

[
  {
    "compound": "CCCCCCCCCCC(O)C1C=CC2C(=O)N(C)C(=O)C2N1N1CCCCC1 (centres undefined)",
    "readoutValue": -3.54
  },
  {
    "compound": "COCCOC(=O)N1C(=O)[C@@]2(c3cc(C#CCCO)ccc31)[C@H](C(=O)N1CCN(c3ncccn3)CC1)[C@H]1C(=O)O[C@H](c3ccccc3)[C@H](c3ccccc3)N1[C@@H]2c1ccc(O)cc1",
    "readoutValue": 0.0881
  },
  {
    "compound": "CC(C)CNC(=O)[C@@H]1c2ccccc2C(=O)N(CC23CC4CC(CC(C4)C2)C3)[C@H]1c1ccc(CO)cc1",
    "readoutValue": -0.35
  },
  {
    "compound": "COC(=O)[C@@]1(Cc2ccc(F)cc2)[C@H]2c3cc(C(=O)N(C)C)n(CCO)c3C[C@H]2CN1C(=O)c1ccccc1",
    "readoutValue": 0.382
  },
  {
    "compound": "COCCOC(=O)N1C(=O)[C@@]2(c3cc(C#CCCO)ccc31)[C@H](C(=O)N1CCc3cc(OC)c(OC)cc3C1)[C@H]1C(=O)O[C@H](c3ccccc3)[C@H](c3ccccc3)N1[C@@H]2c1ccccc1OCCO",
    "readoutValue": 0.458
  },
  {
    "compound": "CN1C=C(C(=O)OCCS(C)(=O)=O)C(C(=O)OCCS(C)(=O)=O)=CC(CCCO)=CC1c1ccc(CN2CCCC2)cc1 (centres undefined)",
    "readoutValue": -0.268
  },
  {
    "compound": "[N-]=[N+]=Nc1ccccc1[C@@H]1OC(c2ccc(OCCCO)cc2)=N[C@]1(Cc1ccccc1)C(N)=O",
    "readoutValue": -2.14
  },
  {
    "compound": "CC(C)(C)N1CC=CC23O[C@@H]4/C=C\\CCCOC(=O)C4[C@H]2C(=O)N(CCCCCCO)[C@@H]3C1=O (some centres undefined)",
    "readoutValue": -0.0296
  },
  {
    "compound": "COC(=O)[C@@]1(Cc2ccc(F)cc2)[C@H]2c3cc(C(=O)N4CCCC4)n(CCO)c3C[C@H]2CN1C(=O)c1ccccc1",
    "readoutValue": -0.929
  },
  {
    "compound": "CN1C(=O)[C@]2(CCC(=O)OC(C)(C)C)N=C(c3ccc(OCCCO)cc3)O[C@@H]2c2ccccc21",
    "readoutValue": -3.26
  },
  {
    "compound": "COCC(=C=CC[C@@H](O)c1ccc(OCCO)cc1)C[C@@H](O)COCc1ccccc1",
    "readoutValue": 0.0253
  },
  {
    "compound": "COc1cc(OC)c(C(O)C2C=CC3C(=O)N(c4ccccc4)C(=O)C3N2Nc2ccccc2F)cc1Br (centres undefined)",
    "readoutValue": -0.308
  },
  {
    "compound": "CC(C)(C)OC(=O)CC[C@]1(C(=O)N2CCOCC2)N=C(c2ccc(OCCCO)cc2)O[C@H]1c1ccccc1CN=[N+]=[N-]",
    "readoutValue": -0.563
  },
  {
    "compound": "CC(=O)NCCCC[C@@H]1NC(=O)[C@H]2C[C@@H](C(=O)NCCCCCC[N+](C)(C)C)[C@@H](c3ccc(O)cc3)N2C1=O",
    "readoutValue": 0.512
  },
  {
    "compound": "CN(C)CCCC[C@@H]1NC(=O)[C@H]2C[C@@H](C(=O)O)[C@@H](c3cccc(OCCO)c3)N2C1=O",
    "readoutValue": 0.584
  },
  {
    "compound": "CCOC(=O)C1=CC[C@@H](c2ccccc2Cl)N(S(=O)(=O)c2ccc(C)cc2)[C@H]1c1cccc(OC)c1",
    "readoutValue": 0.688
  },
  {
    "compound": "C=C(COC)/C(=C/C[C@H](OC(=O)c1ccncc1)c1cccc(OCCO)c1)c1cnc2ccccc2c1",
    "readoutValue": -0.0229
  },
  {
    "compound": "COCCCNC(=O)[C@@]1(Sc2ccc(C)cc2)CC(=O)N(C2CCCCC2)[C@@H]1c1ccc(CO)cc1I",
    "readoutValue": -2.33
  },
  {
    "compound": "CCOC(=O)C1=CC[C@@H](c2ccc(F)cc2)N(S(=O)(=O)c2ccc(C)cc2)[C@H]1c1ccc([N+](=O)[O-])cc1",
    "readoutValue": 0.192
  },
  {
    "compound": "CC(C)(C)OC(=O)CC[C@]1(C(N)=O)N=C(c2ccc(OCCCO)cc2)O[C@H]1c1ccccc1CN=[N+]=[N-]",
    "readoutValue": -0.387
  },
  {
    "compound": "C=CCNC(=O)[C@H]1[C@@H]2C(=O)O[C@@H](c3ccccc3)[C@@H](c3ccccc3)N2[C@@H](c2ccc(O)cc2)[C@]12C(=O)Nc1ccc(C#CC3=CCCCC3)cc12",
    "readoutValue": -4.46
  },
  {
    "compound": "CCN(CC)c1ccc(N2CC=CC34O[C@@H]5C=CCOC(=O)[C@@H]5[C@H]3C(=O)N(CCO)[C@@H]4C2=O)cc1 (some centres undefined)",
    "readoutValue": 0.38
  },
  {
    "compound": "COCC1=C([C@H](O)CCc2ccccc2)[C@H](CO)n2c(=O)n(-c3ccccc3)c(=O)n2C1",
    "readoutValue": -0.221
  },
  {
    "compound": "CO[C@H]1O[C@H](CO)[C@@H](OC(=O)Nc2ccc(C(F)(F)F)cc2)[C@H](OC(=O)Nc2ccccc2-c2ccccc2)[C@H]1OC(=O)Nc1ccccc1-c1ccccc1",
    "readoutValue": -3.98
  },
  {
    "compound": "[N-]=[N+]=NCc1ccccc1C[C@]1(C(=O)N2CCOCC2)N=C(c2ccc(OCCCO)cc2)O[C@H]1c1ccccc1CN=[N+]=[N-]",
    "readoutValue": -2.29
  },
  {
    "compound": "C=CC[C@]1(C(=O)NCc2ccccc2)COC(c2ccc(OCCCO)cc2)=N1",
    "readoutValue": -0.953
  },
  {
    "compound": "C=CCNC(=O)[C@@H]1[C@H]2C(=O)O[C@H](c3ccccc3)[C@H](c3ccccc3)N2[C@H](c2ccc(O)cc2)[C@@]12C(=O)Nc1ccc(C#CC3(O)CCCCCC3)cc12",
    "readoutValue": -3.93
  },
  {
    "compound": "C=CCC(OC(C)=O)[C@@H]1[C@@H](N(Cc2cccc3ccccc23)C(=O)c2ccc(C)cc2)c2cc(OCCCO)ccc2N1C(=O)c1ccc2ccccc2n1 (some centres undefined)",
    "readoutValue": -0.473
  },
  {
    "compound": "Cc1ccc(F)cc1S(=O)(=O)N[C@@H]1CCN(Cc2ccc3c(c2)OCO3)C1",
    "readoutValue": -0.525
  }
]
